- Tested on: SH-SY5Y cells
- assay_name: Cellular ATP bioluminescence assay (cellular bioenergetics)
- Assay type: cell-based, human
- condition_details: Homo sapiens; SH-SY5Y cells, 24 h exposure, non-linear regression
pIC50: −log10 of the molar value.
metric_name: pIC50

- O[C@H](c1cc(C(F)(F)F)nc2c(C(F)(F)F)cccc12)[C@@H]1CCCCN1 (racemic) [MQ]: 5.33

====

- System: SH-SY5Y cells
- assay_name: LDH cytotoxicity assay (extracellular LDH)
- Assay type: cell-based, human
- condition_details: Homo sapiens; SH-SY5Y cells, 24 h exposure, non-linear regression
pIC50: −log10 of the molar value.
metric_name: pIC50

* O[C@H](c1cc(C(F)(F)F)nc2c(C(F)(F)F)cccc12)[C@@H]1CCCCN1 (racemic) | 4.79

====

- Test system: SH-SY5Y cells
- assay_name: Cellular ATP bioluminescence assay (cellular bioenergetics)
- Format: cell-based, human
- condition_details: Homo sapiens, SH-SY5Y; 24 h exposure
pIC50: −log10 of the molar value.
metric_name: pIC50

* O[C@H](c1cc(C(F)(F)F)nc2c(C(F)(F)F)cccc12)[C@@H]1CCCCN1 (racemic) | ~5.22
